Test: activity coefficient (dimensionless); of the first substance listed, at infinite dilution; xn = mol fraction of the nth substance listed
Conditions: 298.15 K; 100 kPa; Liquid; inert gas stripping; x1 = 0
activity coefficient reference

# molecule, activity coefficient
measured = [
    ("CCC(C)C(C)=O (stereo not drawn) [3-methyl-2-pentanone] + O", 296),
    ("CCCCC(C)=O [2-hexanone] + O", 384),
    ("CCCC(=O)CC [3-hexanone] + O", 418),
    ("CC(=O)C(C)(C)C [3,3-dimethyl-2-butanone] + O", 321),
    ("CCC(=O)C(C)C [2-methyl-3-pentanone] + O", 391),
    ("CC(=O)C(C)C [3-methyl-2-butanone] + O", 91),
    ("CCCC(C)=O [pentan-2-one] + O", 95.9),
    ("CC(=O)CC(C)C [4-methylpentan-2-one] + O", 327),
]
